The measured values listed here are drawn from patent US20040102511A1.

Reported values of IC50 for individual entries
Target Or System: HMG-CoA reductase (Rattus norvegicus, UniProt P51639)
Sequence (P51639 whole entry): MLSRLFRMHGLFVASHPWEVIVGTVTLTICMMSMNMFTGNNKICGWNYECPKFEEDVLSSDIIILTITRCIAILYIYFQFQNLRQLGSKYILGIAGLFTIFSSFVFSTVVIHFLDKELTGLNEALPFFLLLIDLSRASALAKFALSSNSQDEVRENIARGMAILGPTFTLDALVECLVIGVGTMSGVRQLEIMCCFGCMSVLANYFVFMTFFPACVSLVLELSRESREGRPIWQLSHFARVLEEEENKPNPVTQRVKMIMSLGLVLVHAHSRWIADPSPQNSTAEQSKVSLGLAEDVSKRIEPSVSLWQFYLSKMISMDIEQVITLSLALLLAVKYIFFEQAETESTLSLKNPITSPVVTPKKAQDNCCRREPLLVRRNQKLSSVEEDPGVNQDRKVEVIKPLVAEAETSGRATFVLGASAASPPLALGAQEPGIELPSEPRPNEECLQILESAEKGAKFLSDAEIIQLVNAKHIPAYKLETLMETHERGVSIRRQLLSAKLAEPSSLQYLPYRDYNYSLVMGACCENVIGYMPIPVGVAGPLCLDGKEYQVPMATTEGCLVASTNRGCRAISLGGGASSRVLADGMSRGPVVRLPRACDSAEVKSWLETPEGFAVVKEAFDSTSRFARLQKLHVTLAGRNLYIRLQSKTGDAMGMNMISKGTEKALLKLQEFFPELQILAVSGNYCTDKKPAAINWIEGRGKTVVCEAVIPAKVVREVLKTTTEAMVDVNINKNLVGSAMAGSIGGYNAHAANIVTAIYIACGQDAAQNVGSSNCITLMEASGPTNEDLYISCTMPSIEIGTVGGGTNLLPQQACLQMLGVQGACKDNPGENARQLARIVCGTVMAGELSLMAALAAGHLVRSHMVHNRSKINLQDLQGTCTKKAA
Counter-ions that a name gives are not always drawn.
Write the answer as a number in nM, unit excluded.

Worked cases, IC50 given:
Prompt: Determine from records and report IC50 for CC(C)c1c(C(=O)Nc2ccccc2)c(-c2ccccc2)c(-c2ccc(F)cc2F)n1CC[C@@H](O)C[C@@H](O)CC(=O)O [Compound No. 12, calcium salt]
Completion: 0.0123

Prompt: Determine from records and report IC50 for Cc1ccc(-c2c(C(=O)Nc3ccccc3)c(C(C)C)n(CC[C@@H](O)C[C@@H](O)CC(=O)O)c2-c2ccc(F)cc2)cc1 [Compound No. 17, calcium salt]
Completion: 0.034

Prompt: Determine from records and report IC50 for CC(C)c1c(C(=O)Nc2ccccc2F)c(-c2ccccc2)c(-c2ccc(F)cc2)n1CC[C@@H](O)C[C@@H](O)CC(=O)O [Compound No. 2, calcium salt]
Completion: 0.0177

More entries:
Prompt: Determine from records and report IC50 for O=C(O)C[C@H](O)C[C@H](O)CCn1c(-c2ccc(F)cc2)c(-c2ccccc2)c(C(=O)Nc2ccccc2)c1C1CC1 [Compound No. 19, calcium salt]
Completion: 0.0124

Prompt: Determine from records and report IC50 for CC(C)c1c(C(=O)Nc2ccccc2)c(-c2ccccc2)c(-c2ccc(F)c(F)c2)n1CC[C@@H](O)C[C@@H](O)CC(=O)O [Compound No. 13, calcium salt]
Completion: 0.00625

Prompt: Determine from records and report IC50 for CC(C)c1nc(N(C)S(C)(=O)=O)nc(-c2ccc(F)cc2)c1/C=C/[C@@H](O)C[C@@H](O)CC(=O)O [Rosuvastatin, reference compound]
Completion: 0.0385

Prompt: Determine from records and report IC50 for CC(C)c1c(C(=O)Nc2ccccc2)c(-c2ccc(C(F)(F)F)cc2)c(-c2ccc(F)cc2)n1CC[C@@H](O)C[C@@H](O)CC(=O)O [Compound No. 18, calcium salt]
Completion: 0.0126
